- assay-name: In vitro enzyme assay to detect hydrolysis of chlorophenol red-beta-D-[…] directly proportional to the number of Toxoplasma stably expressing beta-galactosidase
- Assay type: functional, organism-based, Toxoplasma gondii
- Set-up: scale not given: in the data most compounds retested in dose-response had high values
- stated-conditions: 50 µM
Among all 85,000 compounds or so, about 440 (0.52%) showed an effect of 50% or more. This excerpt belongs to a sample that is enriched for strong results.
Percent Effect overview
Number only, in %; omit the unit.

# annotated cases, reported Percent Effect shown
**Q:** Please supply the value of reported Percent Effect for the item `Nc1nnc(SCc2cn3ccccc3n2)s1`
**A:** -6.062

**Q:** Write down Percent Effect measured for item `COCc1cccc(C(=O)Nc2ccncc2)c1`
**A:** -8.978

---
**Q:** Give the reported value of Percent Effect for this record: CC1C(=O)NCCN1C(=O)c1cc(-c2ccco2)on1 (stereo not drawn)
**A:** 0.5841

**Q:** Using the record for `CCCC(=O)N(C)C1CCN(C)CC1` , state its measured Percent Effect.
**A:** 4.372

**Q:** For the compound `N[C@@H]1CCCc2c(F)cc(F)cc21` , report Percent Effect.
**A:** 13.09

**Q:** Give me measured Percent Effect, please, for this compound: NC1CSc2ccccc21 (stereo not drawn)
**A:** 16.15

**Q:** Specify measured Percent Effect for CN(CC(=O)Nc1ccsc1)C1CCS(=O)(=O)C1 (stereo not drawn) .
**A:** -6.022

**Q:** Answer with the recorded Percent Effect of `Cn1nnc(NC(=O)c2ccc(C#N)cc2F)n1` only.
**A:** -8.268

**Q:** Output Percent Effect of CCC(C)N(C)CCC(=O)Nc1ccc(C(N)=O)cc1 (stereo not drawn)
**A:** -26.89

**Q:** Fill in Percent Effect for record `CNC(=O)c1cccc(NCc2nc(C)cs2)n1`
**A:** -1.003

**Q:** Quickly give me recorded Percent Effect for `Cc1ccccc1NC(=O)CCN1CCN(C)CC1`
**A:** -26.18

**Q:** Fill in Percent Effect for record `COc1ccc(CN(C)C(=O)C2CC2)cc1F`
**A:** 5.333

**Q:** Fill in reported Percent Effect for this entry: `CCc1cc(NCc2cccnc2)n2nccc2n1`
**A:** 3.949

**Q:** State, in one line, measured Percent Effect of O=C(NCC1(O)CCNC1)c1ccc(F)c(O)c1 (stereo not drawn)
**A:** -8.112
